Hi there, I'd appreciate the recorded inhibition at 0.1 ppm for every entry that follows.
# MEASURED_TARGET: AtPPO1 S305L G404A L479N (SEQ ID NO.137) (Arabidopsis thaliana, UniProt P55826, G404A/L479N/S305L)
# Construct: made in house; host or cells: E. coli BL21 (DE3) hemG, crude extract
# Sequence (P55826 35-537 S305L/G404A/L479N): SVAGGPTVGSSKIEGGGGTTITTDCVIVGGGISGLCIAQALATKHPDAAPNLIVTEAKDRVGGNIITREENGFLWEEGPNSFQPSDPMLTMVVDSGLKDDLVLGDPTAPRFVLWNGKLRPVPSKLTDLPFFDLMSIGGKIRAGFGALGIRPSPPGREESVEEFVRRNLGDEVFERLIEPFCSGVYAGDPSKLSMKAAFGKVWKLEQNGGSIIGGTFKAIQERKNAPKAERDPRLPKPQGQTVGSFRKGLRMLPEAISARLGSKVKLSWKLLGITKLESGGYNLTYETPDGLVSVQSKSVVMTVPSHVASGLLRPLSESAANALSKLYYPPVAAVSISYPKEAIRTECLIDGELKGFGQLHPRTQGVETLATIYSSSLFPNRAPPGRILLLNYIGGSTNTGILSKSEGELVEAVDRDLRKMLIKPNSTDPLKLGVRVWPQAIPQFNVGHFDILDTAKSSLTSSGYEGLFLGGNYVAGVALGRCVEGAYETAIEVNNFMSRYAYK
# MEASUREMENT_PROTOCOL: fluorescent Protoporphyrinogen Oxidase assay, crude extract
# Format: biochemical
# CONDITION_SET: read-out: percentage inhibition
Note: unit % is implicit; provide only the numeric part.

Look up and state reported inhibition at 0.1 ppm for CCOC(=O)C1(C)CC(c2cc(-n3c(=O)cc(C(F)(F)F)n(C)c3=O)c(F)cc2Cl)=NO1 (centres unmarked) [Herbicide C]
26

Consider the compound C#CCN1C(=O)C(F)(F)Oc2cc(F)c(-n3c(=O)n(C)c(=S)n(C)c3=O)cc21 [Herbicide B, trifludimoxazin] . State its measured inhibition at 0.1 ppm.
77

Give me measured inhibition at 0.1 ppm, please, for this compound: CC(C)N(C)S(=O)(=O)NC(=O)c1cc(-n2c(=O)cc(C(F)(F)F)n(C)c2=O)c(F)cc1Cl [Herbicide E, saflufenacil]
22

Read off the recorded inhibition at 0.1 ppm for CCOC(=O)[C@]1(C)CC(c2cc(-n3c(=O)n(C)c(=S)n(C)c3=O)c(F)cc2Cl)=NO1 [Herbicide D]
12

Answer with the recorded inhibition at 0.1 ppm for the compound listed here: CCOC(=O)COc1ncccc1Oc1cc(-n2c(=O)cc(C(F)(F)F)n(C)c2=O)c(F)cc1Cl [Herbicide A, epyrifenacil]
24

Reference source for all entries: patent US20260297542A1
